# System: MELK
# ASSAY CONDITIONS: concentration: 1 μM, replicates: in singlicate; n = 1;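 further: KINOMEscan kinase panel screen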
%Inh values by entry
ENDPOINT NAME: %Inh (%)

INSERT INTO results (molecule, system, endpoint_name, unit_info, measurement) VALUES
  ('COc1ccc(-c2coc3ccc(-c4nnc(SCc5ccc(OC)c(C(F)(F)F)c5)o4)cc23)cc1', 'MELK', '%Inh', '%', 20),
  ('Cn1cc(-c2ccc3c(c2)CCN3C(=O)Cc2cccc(F)c2)c2c(N)ncnc21 [GSK2603358]', 'MELK', '%Inh', '%', 9),
  ('NCCCC(NC(=O)c1cc(Br)c(-c2ccnc3[nH]ccc23)s1)c1ccccc1.O=C(O)C(F)(F)F.O=C(O)C(F)(F)F (centres unmarked) [GSK1287544]', 'MELK', '%Inh', '%', 54),
  ('COc1ccc(Nc2nccc(NCCNC(=O)c3cc4ccccc4s3)n2)cc1 [GSK1379896]', 'MELK', '%Inh', '%', 0),
  ('Cc1ccc(F)c(C(=O)Nc2cccc(-c3nn4ccccc4c3-c3ccnc(Nc4cccc(F)c4)n3)c2)c1F [GSK361061]', 'MELK', '%Inh', '%', 12),
  ('COC(=O)Nc1nc2ccc(Oc3ccc(NC(=O)Nc4cc(C(F)(F)F)ccc4F)cc3)cc2n1C.Cl [GW692089]', 'MELK', '%Inh', '%', 0),
  ('Cc1ccc(S(=O)(=O)Nc2ccc(Nc3nccc(Nc4cccc5[nH]ncc45)n3)cc2)cc1 [GSK581271]', 'MELK', '%Inh', '%', 0),
  ('Cc1ccc(C(=O)N2CC[C@@H](O)C2)cc1-n1c(C)cc(OCc2ccc(F)cc2F)c(Br)c1=O', 'MELK', '%Inh', '%', 0);

###

# Test system: JNK2
# Construct: gene MAPK9
# ASSAY CONDITIONS: concentration: 1 μM, replicates: in singlicate; n = 1
Define the label as Met when %Inh is strictly less than 7% and as Not met in all remaining cases.

INSERT INTO assay_data (compound, label_value) VALUES
  ('CN1CCN(Cc2cccc(-c3ccc4c(Nc5ccc(Oc6ccccc6)cc5)ccnc4c3)c2)CC1 [GW578342]', 'Met'),
  ('COc1ccc(Nc2nccc(N3CCC(NC(=O)Nc4cccc(OC)c4)C3)n2)cc1 (centres unmarked) [GSK1379742]', 'Not met'),
  ('COc1cccc(C(=O)Nc2cccc(Oc3ccc4nc(NC(=O)C5CC5)cn4n3)c2)c1', 'Not met'),
  ('Nc1ncc(-c2cccnc2)c2scc(-c3ccc4c(c3)CCN4C(=O)Cc3ccccc3)c12 [GSK683281]', 'Not met'),
  ('Cn1cc(-c2[nH]c3cc(NC(=O)[C@H](N)C4CCCCC4)cc4c3c2C=NNC4=O)cn1', 'Met'),
  ('Nc1ncc(-c2ccc3nccc(-c4ccncc4)c3c2)cc1S(=O)(=O)N1CCOCC1 [GSK1627798]', 'Not met'),
  ('CC(=O)N1CCN(c2ccc(Nc3nccc(-c4sc(C(C)C)nc4-c4cccc(NS(=O)(=O)c5cccc(Cl)c5)c4)n3)cn2)CC1 [GSK1660437]', 'Not met'),
  ('Cc1ccc(C)c(NC(=O)NC2CCN(c3ccnc(Nc4ccc(F)cc4)n3)C2)c1 (centres unmarked) [GSK1379720]', 'Not met'),
  ('Cc1cccc(NC(=O)Nc2ccc(Oc3ncnc4ccn(C)c34)cc2)c1', 'Met'),
  ('CSc1cccc2c(-c3ccncn3)c(-c3ccc(F)cc3)nn12 [GW514786]', 'Not met'),
  ('Cl.NC(=O)c1cccc(Nc2nccc(Nc3ccc(Oc4c(Cl)cccc4Cl)c(Cl)c3)n2)c1 [GW659009]', 'Met'),
  ('COC(=O)Nc1nc2cc(Oc3ccc(NC(=O)Nc4cc(C(F)(F)F)ccc4F)cn3)ccc2[nH]1.Cl.Cl [GW681170]', 'Not met'),
  ('COc1cc2c(cc1OCCN1CCNCC1)ncc1c3ccc(C#N)cc3[nH]c21', 'Met'),
  ('Nc1n[nH]c2cnc(-c3ccccc3)cc12 [SB-642124]', 'Met'),
  ('Cl.Cl.NCC(NC(=O)c1cc(-c2ccccc2)c(-c2ccnc3[nH]ccc23)s1)c1ccccc1 (centres unmarked) [GSK1321561]', 'Not met'),
  ('C[C@@H]1CC[C@@H](C(=O)Nc2ccccc2)CN1c1cc(-c2ccc3c(N)n[nH]c3c2)nc(N)n1 [GSK2286062]', 'Not met');

###

# Tested on: MAP4K5
# ASSAY CONDITIONS: concentration: 1 μM, replicates: in singlicate; n = 1
ENDPOINT NAME: %Inh (%)

INSERT INTO assay_data (molecule, endpoint_name, unit_info, measurement) VALUES
  ('CCn1c(-c2nonc2N)nc2c(C#CC(C)(C)O)nc(OC[C@H](N)c3ccccc3)cc21', '%Inh', '%', 40),
  ('CC(C)(C)c1ccc2nccc(Nc3cccc(O)c3)c2c1', '%Inh', '%', 29),
  ('O=C(Nc1n[nH]c2cc(-c3ccoc3)ccc12)C1CC1', '%Inh', '%', 0),
  ('C[C@@H]1CC[C@@H](C(=O)Nc2ccccc2)CN1c1cc(-c2ccc3c(N)n[nH]c3c2)nc(N)n1', '%Inh', '%', 0),
  ('Cl.Cl.NCC(NCc1ccc(-c2ccnc3[nH]ccc23)s1)c1ccccc1 (centres unmarked)', '%Inh', '%', 0);

###

# Test system: WNK2
# ASSAY CONDITIONS: concentration: 1 μM, replicates: in singlicate; n = 1
Define the label as Fulfilled when %Inh is strictly less than 10% and as Not fulfilled in all remaining cases.

INSERT INTO assay_data (compound, label_value) VALUES
  ('Cl.c1ccc(-c2ccc3c(Nc4ccc5[nH]ccc5c4)ccnc3c2)nc1', 'Not fulfilled'),
  ('COc1ccc(Nc2nccc(N3CCC(NC(=O)Nc4cccc(OC)c4)C3)n2)cc1 (stereo not shown)', 'Not fulfilled'),
  ('COc1cccc(NC(=O)NC2CCN(c3ccnc(Nc4cc(OC)c(OC)c(OC)c4)n3)C2)c1 (stereo not shown)', 'Not fulfilled'),
  ('Oc1cc(Nc2ccnc3cc(I)ccc23)ccc1F', 'Fulfilled'),
  ('Cn1cc(-c2ccc3c(c2)CCN3C(=O)Cc2cccc(F)c2)c2c(N)ncnc21', 'Fulfilled'),
  ('COc1cc(Nc2nccc(N3CCC(NC(=O)Nc4cccc(C(C)=O)c4)C3)n2)cc(OC)c1OC (stereo not shown)', 'Not fulfilled'),
  ('C[C@@H]1CC[C@@H](C(=O)Nc2ccccc2)CN1c1cc(-c2ccc3c(N)n[nH]c3c2)nc(N)n1', 'Fulfilled'),
  ('Cn1cc(-c2ccc3c(c2)CCN3C(=O)Cc2cccc(Cl)c2)c2c(N)ncnc21', 'Not fulfilled'),
  ('CC(C)c1nc(-c2cccc(NS(=O)(=O)c3c(F)cccc3F)c2F)c(-c2ccnc(Nc3ccc(N4CCOCC4)nc3)n2)s1', 'Not fulfilled'),
  ('O=C(O)C(F)(F)F.O=C(O)C(F)(F)F.O=c1[nH]ccc2nc(N[C@@H]3CCCNC3)nc(Nc3ccc(S(=O)(=O)N4CCOCC4)cc3)c12', 'Not fulfilled'),
  ('Cl.Cl.NCC(NCc1ccc(-c2ccnc3[nH]ccc23)s1)c1ccccc1 (stereo not shown)', 'Not fulfilled'),
  ('O=C(Nc1cccc(-c2nn3ccccc3c2-c2ccnc(Nc3cccc(C(F)(F)F)c3)n2)c1)c1c(F)cccc1F', 'Not fulfilled'),
  ('O=C(Nc1n[nH]c2nc(-c3ccc(O)cc3)ccc12)C1CC1', 'Fulfilled'),
  ('COC(=O)Nc1nc2cc(Oc3ccc(NC(=O)Nc4cc(C(F)(F)F)ccc4F)cn3)ccc2[nH]1.Cl.Cl', 'Fulfilled'),
  ('CNC(=O)c1ccccc1Nc1nc(Nc2ccc(N3CCOCC3)cc2)ncc1Cl.Cl', 'Fulfilled'),
  ('Cc1ccc(S(=O)(=O)Nc2ccc(Nc3nccc(Nc4cccc5[nH]ncc45)n3)cc2)cc1', 'Fulfilled');

###

%Inh values by entry
# System: OSR1
# Construct: gene OXSR1
# ASSAY CONDITIONS: concentration: 1 μM, replicates: in singlicate; n = 1
ENDPOINT NAME: %Inh (%)

INSERT INTO measurements (compound, measurement) VALUES
  ('Cl.Cl.NCC(NCc1ccc(-c2ccnc3[nH]ccc23)s1)c1ccccc1 (centres unmarked)', 10),
  ('O=C(Nc1cccc(-c2nn3ccccc3c2-c2ccnc(Nc3cccc(F)c3)n2)c1)c1c(F)ccc(F)c1Cl', 2),
  ('Cc1ccc(F)c(C(=O)Nc2cccc(-c3nn4ccccc4c3-c3ccnc(Nc4cccc(F)c4)n3)c2)c1F', 100),
  ('COc1cc(Nc2ncc3c(C)nc(-c4cc5ccccc5[nH]4)n3n2)cc(OC)c1OC', 0),
  ('CNC(=O)c1ccccc1Nc1nc(Nc2ccc(N3CCOCC3)cc2)ncc1Cl.Cl', 35),
  ('FC(F)(F)c1ccc(/C=C/c2cncnc2Nc2ccc3[nH]c(Cc4ccccc4)nc3c2)cc1', 0),
  ('COCCOCCOc1cc2ncc3c4ccc(C#N)cc4[nH]c3c2cc1OC', 0),
  ('C[C@@H](Oc1cc(-n2cnc3cc(-c4ccnc(NCCS(C)(=O)=O)c4)ccc32)sc1C(N)=O)c1ccccc1Cl', 20),
  ('COc1cccc(C(=O)Nc2cccc(Oc3ccc4nc(NC(=O)C5CC5)cn4n3)c2)c1', 0),
  ('Fc1ccc(-c2ncn(C3CCNCC3)c2-c2ccnc(Oc3ccc(-c4ccccc4)cc3)n2)cc1', 36),
  ('C[C@@H]1CC[C@@H](C(=O)Nc2ccccc2)CN1c1cc(-c2ccc3c(N)n[nH]c3c2)nc(N)n1', 10),
  ('CCCCc1nn2ncccc2c1-c1ccnc(Nc2ccc(N3CCN(C)CC3)cc2)n1', 12),
  ('Cn1cc(-c2ccc3c(c2)CCN3C(=O)Cc2cccc(F)c2)c2c(N)ncnc21', 37),
  ('COc1cc(Nc2nccc(N3CCC(NC(=O)c4cc5ccccc5s4)C3)n2)cc(OC)c1OC (centres unmarked)', 2),
  ('COc1cc2c(cc1OCCN1CCNCC1)ncc1c3ccc(C#N)cc3[nH]c21', 20),
  ('COc1cccc(-c2ccc3c(NC(=O)C4CC4)n[nH]c3n2)c1', 13),
  ('c1ccc(-c2cnc3nccnn23)cc1', 0);

Sourced from paper PMC5540273
